- Test Target: HSD17B13 (Homo sapiens (Human), UniProt Q7Z5P4)
- Sequence (Q7Z5P4 other isoform, or with tags, fused parts or gaps): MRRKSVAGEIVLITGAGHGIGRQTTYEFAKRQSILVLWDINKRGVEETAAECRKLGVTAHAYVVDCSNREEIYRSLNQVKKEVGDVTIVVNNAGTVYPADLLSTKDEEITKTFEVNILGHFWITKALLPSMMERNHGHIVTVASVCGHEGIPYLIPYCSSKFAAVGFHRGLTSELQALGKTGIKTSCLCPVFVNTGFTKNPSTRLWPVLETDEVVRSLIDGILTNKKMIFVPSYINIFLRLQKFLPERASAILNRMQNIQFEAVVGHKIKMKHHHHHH
- Assay Details: HSD17B13 enzymatic inhibition assay (150 nM or 50 nM HSD17B13)
- Format: biochemical
- Study Conditions: 50 nM HSD17B13; read-out: Inhibition of 50 nM of HSD17B13 IC50
pIC50: −log10 of the molar value.
# pIC50 >= 7 gives Yes, anything below gives No

>  <Compound>
O=C(NC(c1ccccc1)c1ccc(-c2ccncc2)cc1)c1ccc(C(F)(F)F)[nH]c1=O (centres unmarked) [Compound 85]

>  <Discrete Label>
No

$$$$
>  <Compound>
Cc1ccc2c(NC(=O)c3ccc(C(F)(F)F)[nH]c3=O)cn(C)c2c1 [Compound 379]

>  <Discrete Label>
No

$$$$
>  <Compound>
CC[C@@H](C[C@@H](NC(=O)c1ccc(C(F)(F)F)[nH]c1=O)c1ccc(C)cc1)OC [Compound 553]

>  <Discrete Label>
No

$$$$
>  <Compound>
C=Cc1cccc2c1CCCC2NC(=O)c1ccc(C(F)(F)F)[nH]c1=O (centres unmarked) [Compound 547]

>  <Discrete Label>
No

$$$$
>  <Compound>
O=C(NC1c2ccc(Cl)cc2Oc2cccc(Cl)c21)c1ccc(C(F)(F)F)[nH]c1=O (centres unmarked) [Compound 51]

>  <Discrete Label>
No

$$$$

Asked: Decide: is the reported value of pIC50 for Cc1ccc2c(c1)Oc1cc(C)ccc1C2NC(=O)c1cc(-c2ccccc2)c(C(F)(F)F)[nH]c1=O [Compound 177] equal to or greater than 7?
Given back: Yes

Asked: What about this compound? O=C(NC1c2ccccc2-c2ccccc21)c1cnc(Cc2ccccc2)[nH]c1=O [Compound 59]
Given back: No

Asked: What about this compound? CCCc1cc(C(F)(F)F)[nH]c(=O)c1C(=O)NC1c2ccc(C)cc2Oc2cccc(C)c21 (centres unmarked) [Compound 208]
Given back: No
